Target: CDK12/CycK (Homo sapiens)
Sequence (Q9NYV4 with tags, fused parts or gaps): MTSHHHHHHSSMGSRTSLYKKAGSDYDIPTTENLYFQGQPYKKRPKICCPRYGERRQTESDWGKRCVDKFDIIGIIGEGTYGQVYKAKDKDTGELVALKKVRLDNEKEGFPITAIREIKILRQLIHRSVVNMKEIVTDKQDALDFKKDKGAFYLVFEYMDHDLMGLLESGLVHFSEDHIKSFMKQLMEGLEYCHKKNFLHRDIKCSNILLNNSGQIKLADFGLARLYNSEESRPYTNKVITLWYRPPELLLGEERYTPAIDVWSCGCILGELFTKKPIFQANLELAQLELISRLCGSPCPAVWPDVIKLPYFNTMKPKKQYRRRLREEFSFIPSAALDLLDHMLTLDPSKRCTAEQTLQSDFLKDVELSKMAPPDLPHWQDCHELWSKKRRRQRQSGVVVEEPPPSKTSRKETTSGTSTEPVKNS
Sequence (O75909 1-300 partner limits assumed): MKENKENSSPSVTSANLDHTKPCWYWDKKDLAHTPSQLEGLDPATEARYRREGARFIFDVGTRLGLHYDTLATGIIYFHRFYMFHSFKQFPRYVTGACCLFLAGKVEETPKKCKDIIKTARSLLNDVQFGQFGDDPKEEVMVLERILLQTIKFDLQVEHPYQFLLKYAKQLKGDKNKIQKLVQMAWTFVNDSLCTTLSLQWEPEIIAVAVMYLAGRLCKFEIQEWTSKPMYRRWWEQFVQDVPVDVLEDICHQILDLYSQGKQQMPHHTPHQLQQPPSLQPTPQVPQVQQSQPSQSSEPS
Assay: CDK12/CycK high ATP kinase assay (TR-FRET, 2 mM ATP)
Conditions: 2 mM ATP (high ATP); median; read-out: CDK12/CyclinK, 2 mM ATP (high ATP), IC50-[mol/l] (median)
pIC50: −log10 of the molar value.
Each entry below lists one item and its recorded pIC50 value.

Observe how each entry below is paired with its result.
{"COMPOUND": "COc1cccc2[nH]c(CNc3nc(N4CCOCC4)nc4c(-c5nccs5)cnn34)nc12", "pIC50": "< 5.24"}
{"COMPOUND": "NCCOCCOCCNc1nc(NCc2nc3ccccc3[nH]2)n2ncc(Br)c2n1", "pIC50": "< 5.24"}
{"COMPOUND": "c1cncc(-c2cnn3c(NCc4nc5ccccc5[nH]4)nc(N4CCOCC4)nc23)c1", "pIC50": "< 4.70"}

Could you now consider this next compound?
QUERY: Fill blank: measured pIC50 of the compound CN1CCN(c2nc(NCc3nc4ccccc4[nH]3)n3ncc(C4CC4(F)F)c3n2)CC1 (stereo not shown) is ____.
RESULT: < 4.70
